Hi there, I'd appreciate the recorded %Inh for every entry that follows.
System: SNARK
Construct: gene NUAK2
Conditions: concentration: 1 μM, replicates: in singlicate; n = 1;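 further: KINOMEscan kinase panel screen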
One number for each entry, in %.

Here is how some molecules turned out for %Inh.
[[record]]
molecule = "Cc1cccc(-c2nc(Nc3cccc(C(N)=O)c3)c3ccccc3n2)n1 [GW876019]"
reported_metric = "%Inh"
display_unit = "%"
value_observed = 0

[[record]]
molecule = "Cc1cc(-c2ccc3c(c2)CC[C@@H](N[C@@H](C)c2ccccc2)C3)cnc1N.Cl [GW412617]"
reported_metric = "%Inh"
display_unit = "%"
value_observed = 8

[[record]]
molecule = "Cl.O=C(Nc1cccc(-c2nn3ncccc3c2-c2ccnc(Nc3cccnc3)n2)c1)c1c(F)cccc1F [GSK312879]"
reported_metric = "%Inh"
display_unit = "%"
value_observed = 0


Your task in this section: give %Inh for each listed record.
1. Cc1ccc(NC(=O)Nc2cc(C(C)(C)C)nn2-c2ccccc2)cc1 [GSK1014915]
2. Cc1ccc(-c2cc(-c3c[nH]nc3-c3ccccn3)ccn2)cc1 [GW684088]
3. Cc1cccc(-c2nc(Nc3ccncc3)c3ccccc3n2)n1 [GW855857]
4. Cc1cccc(-c2cc(Nc3ccncc3)c3ccccc3n2)n1 [GSK223675]
5. COc1cccc(NC(=O)NC2CCN(c3ccnc(Nc4ccc(F)cc4)n3)C2)c1 (stereo not shown) [GSK1379721]
6. COc1ccc(CNC(=O)NC2CCN(c3ccnc(Nc4cc(OC)c(OC)c(OC)c4)n3)C2)cc1 (stereo not shown) [GSK1379748]

1: 0; 2: 0; 3: 0; 4: 0; 5: 0; 6: 25

Your task in this section: give %Inh for each listed record.
1. O=C(Nc1n[nH]c2nc(-c3nccs3)c(Br)cc12)C1CCCC1 [SB-742609]
2. C[C@@H]1CCCCN1c1cc(-c2ccc3c(N)n[nH]c3c2)nc(N)n1 [GSK2258759]
3. Fc1cc(Cl)ccc1Nc1ccnc2cc(I)ccc12 [GW551191]

[0, 2, 0]

###

Tested on: PIK4CB
Construct: gene PI4KB
Conditions: concentration: 1 μM, replicates: in singlicate; n = 1
REPORTED_METRIC: %Inh
Give me the value, and tack the unit on after it.

Here is how some compounds turned out for %Inh.
[[record]]
cpd_smiles = "COc1ccc(Nc2nccc(-c3cccc(NC(=O)c4cc5cc(F)ccc5[nH]4)c3)n2)cc1"
value_observed = "0%"

[[record]]
cpd_smiles = "COc1ccccc1-c1ccc2c(NC(=O)C3CC3)n[nH]c2n1"
value_observed = "0%"

[[record]]
cpd_smiles = "Cc1cccc(-c2cc(Nc3ccncc3)c3ccccc3n2)n1"
value_observed = "21%"

[[record]]
cpd_smiles = "Cc1cccc(-c2nc(Nc3ccc4[nH]ncc4c3)c3ccccc3n2)n1"
value_observed = "23%"


Please look at the following compound next.
If you can, please state the reported %Inh value of O=S(=O)(c1ccc(-c2ccnc3[nH]ccc23)cc1)N1CCCC1 .
23%

###

System: LYN
Details: concentration: 1 μM, replicates: in singlicate; n = 1
REPORTED_METRIC: %Inh (%)
Answers are plain numbers, in %.

Here is how some molecules turned out for %Inh.
[[record]]
molecule = "Cc1cccc(-c2cc(Nc3ccncc3)c3ccccc3n2)n1"
reported_metric = "%Inh"
display_unit = "%"
value_observed = 0

[[record]]
molecule = "O=C(Nc1ccccc1)Nc1cccc(Oc2ccc3nccn3n2)c1"
reported_metric = "%Inh"
display_unit = "%"
value_observed = 0

[[record]]
molecule = "Cl.c1ccc(-c2n[nH]cc2-c2ccnc(-c3ccc(CN4CCOCC4)cc3)c2)nc1"
reported_metric = "%Inh"
display_unit = "%"
value_observed = 6

[[record]]
molecule = "O=C(Nc1n[nH]c2nc(-c3nccs3)c(Br)cc12)C1CCCC1"
reported_metric = "%Inh"
display_unit = "%"
value_observed = 0


Your task in this section: give %Inh for each listed record.
1. Cc1cccc(-c2nc(Nc3ccncc3)c3ccccc3n2)n1
2. CC(C)(C)c1ccc(C(=O)Nc2cn3cc(Cl)ccc3n2)cc1
3. COc1ccccc1CNC(=O)c1cc(C(=O)c2ccccc2C)c[nH]1
4. CS(=O)(=O)c1ccc(-c2c(-c3ncn[nH]3)sc(N3CCOCC3)c2C#N)cc1
5. Cc1csc(-c2nc(Nc3ccncc3)c3ccccc3n2)n1
6. Cc1cccc(-c2nc(Nc3cccc(C(N)=O)c3)c3ccccc3n2)n1
7. COc1cc2ncnc(Nc3ccc4nc(-c5ccccc5)[nH]c4c3)c2cc1OC.Cl
8. CC1=C(C(=O)Nc2cc3cn[nH]c3cc2F)C(c2ccc(C(F)(F)F)cc2)CC(=O)N1 (centres unmarked)

1: 0; 2: 8; 3: 0; 4: 0; 5: 0; 6: 0; 7: 0; 8: 0

Your task in this section: give %Inh for each listed record.
1. O=c1cc(N2CCOCC2)nc2n(Cc3cccc(Cl)c3Cl)ccn12
2. Cc1cccc(-c2nc(Nc3ccc4[nH]ncc4c3)c3ccccc3n2)n1
3. Cn1cncc1-c1ccc2ncnc(Nc3ccc(OCc4ccccc4)cc3)c2c1

1. 97.8
2. 17
3. 2

Your task in this section: give %Inh for each listed record.
1. COc1ccc2nc(-c3cccc(C)n3)nc(Nc3ccncc3)c2c1
2. CCn1c(-c2cccnc2O)nc2cnccc21
3. O=C(O)COc1ncnc2cc(-c3ccc4[nH]ncc4c3)sc12
4. O=C1NC(=O)C(N2CCc3ccccc32)=C1c1ccccc1Cl
5. COc1cccc(-c2cc(-c3c[nH]nc3-c3ccccn3)ccn2)c1
6. Cc1cc(NCC(c2ccccc2)c2ccccc2)nc(NCc2ccc(C(F)(F)F)cc2)n1
7. Nc1nc(-c2nccs2)c(-c2ccnc3ccccc23)s1

[0, 0, 0, 17, 26, 0, 3]

###

Hi there, I'd appreciate the recorded %Inh for every entry that follows.
Tested on: YANK1
Construct: gene STK32A
Conditions: concentration: 1 μM, replicates: in singlicate; n = 1
Give me the value, and tack the unit on after it.

[[record]]
compound = "CN1C(=O)C(Nc2ccc(Cl)c(C(=O)O)c2)=C(c2ccc(Cl)cc2)C1=O"
value_observed = "0%"

[[record]]
compound = "Cc1cccc(-c2nc(C)cc(Nc3ccncc3)n2)n1"
value_observed = "10%"

[[record]]
compound = "CCn1c(-c2cccnc2O)nc2cnccc21"
value_observed = "0%"

[[record]]
compound = "CC1=C(C(=O)Nc2cc3cn[nH]c3cc2F)C(c2ccc(C(F)(F)F)cc2)CC(=O)N1 (stereo not shown)"
value_observed = "8%"

[[record]]
compound = "Cc1csc(-c2nc(Nc3ccncc3)c3ccccc3n2)n1"
value_observed = "2%"


Your task in this section: give %Inh for each listed record.
1. CN(C)CCN(C)C(=O)c1cc(-c2ccncc2)c(-c2ccc(Cl)c(O)c2)o1.Cl.Cl
2. Cn1ccc2ncnc(Oc3cccc(C(=O)Nc4ccccc4)c3)c21
3. CC(C)(C)c1ccc(C(=O)Nc2cn3cc(Cl)ccc3n2)cc1
4. O=C(Nc1ccccc1)Nc1cccc(Oc2ccc3nccn3n2)c1
5. Cl.c1ccc(-c2n[nH]cc2-c2ccnc(-c3ccc(CN4CCOCC4)cc3)c2)nc1
6. Cc1cccc(-c2nc(Nc3ccncc3)c3ccccc3n2)n1

1: 49%; 2: 11%; 3: 0%; 4: 0%; 5: 0%; 6: 0%

Your task in this section: give %Inh for each listed record.
1. Fc1cc(Cl)ccc1Nc1ccnc2cc(-c3ccc(CN4CCCCC4)o3)ccc12
2. Cc1ccc(NC(=O)Nc2cccc(Cl)c2)cc1-c1ccc(C(=O)Nc2ccncc2)cc1
3. COc1cccc(NC(=O)NC2CCN(c3ccnc(Nc4ccc(F)cc4)n3)C2)c1 (stereo not shown)
4. COc1ccc2nc(-c3cccc(C)n3)nc(Nc3ccncc3)c2c1
5. COc1cc2ncn(-c3cc(OCC4CCCO4)c(C(N)=O)s3)c2cc1OC (stereo not shown)

["0%", "10%", "0%", "19%", "9%"]

###

Tested on: EPHB4
Conditions: concentration: 1 μM, replicates: in singlicate; n = 1
The threshold is inclusive: %Inh of exactly 8% counts as class 1; values below receive class 0.

Check out these entries, answers already filled in.
[[record]]
compound = "CCn1c(-c2cccnc2O)nc2cnccc21 [SB-736715]"
label_class = "class 0"

[[record]]
compound = "Cc1cc(-c2ccc3c(c2)CC[C@@H](N[C@@H](C)c2ccccc2)C3)cnc1N.Cl [GW412617]"
label_class = "class 1"

[[record]]
compound = "Cn1ccc2ncnc(Oc3ccc(Nc4nc5ccccc5[nH]4)cc3)c21"
label_class = "class 0"

[[record]]
compound = "COc1cccc(-c2cc(-c3c[nH]nc3-c3ccccn3)ccn2)c1 [GW680338]"
label_class = "class 1"

[[record]]
compound = "NC(=O)c1nnc2ccccc2c1N"
label_class = "class 1"

[[record]]
compound = "C[C@@H]1CCCCN1c1cc(-c2ccc3c(N)n[nH]c3c2)nc(N)n1 [GSK2258759]"
label_class = "class 1"

[[record]]
compound = "COc1cc(Nc2nccc(N3CCC(NC(=O)Nc4cc(C)ccc4C)C3)n2)cc(OC)c1OC (stereo not drawn) [GSK1379762]"
label_class = "class 0"


Item Cc1ccc(C(=O)Nc2ccc(Nc3ccnc4cc(-c5ccccn5)ccc34)cc2O)cc1.Cl [GW440146] with %Inh of 8% or above?
class 0
